Test system: upland rice (Oryza sp., var. Tebonnet, RICE)
test_description: Pre-emerge test, crop safety
Assay type: in vivo
study_conditions: 250 g ai/ha; rating scale 0-100, 14 days after application
We'd kindly ask you to apply these Pre-emerge phytotoxicity rating, crop damage RICE classes: low interval = under 10, middle interval = from 10 up to 50, high interval = 50 and over

Worked cases, answers included:
molecule="O=C(Nc1cc(Cl)ccc1N1C(=O)C2CCCCN2C1=O)c1ccc2ccccc2c1 (centres unmarked)" assigned_class="middle interval"
molecule="COc1c(Cl)cc(F)c(-n2c(=O)cc(C(F)(F)F)n(C)c2=O)c1CC(C)(Cl)C(=O)OCC(F)(F)C(F)F (centres unmarked)" assigned_class="high interval"
molecule="COCCOC(=O)C(C)(Cl)Cc1c(OC)c(Cl)cc(F)c1-n1c(=O)cc(C(F)(F)F)n(C)c1=O (centres unmarked)" assigned_class="high interval"
molecule="COc1c(Cl)cc(F)c(-n2c(=O)cc(C(F)(F)F)n(C)c2=O)c1CC(Cl)C(=O)OCC(C)C (single isomer, unassigned) [14-14]" assigned_class="middle interval"
molecule="COc1c(Cl)cc(F)c(-n2c(=O)cc(C(F)(F)F)n(C)c2=O)c1CC(C)(Cl)C(=O)OCC(C)C (centres unmarked)" assigned_class="high interval"
molecule="CCCCOC(=O)C(Cl)Cc1c(OC)c(Cl)cc(F)c1-n1c(=O)cc(C(F)(F)F)n(C)c1=O (single isomer, unassigned) [14-9]" assigned_class="low interval"
molecule="C#CCOC(=O)C(Cl)Cc1c(OC)c(Cl)cc(F)c1-n1c(=O)cc(C(F)(F)F)n(C)c1=O (single isomer, unassigned) [14-20]" assigned_class="low interval"

Query molecule follows.
Query :: Looking at CCCCCOC(=O)C(Cl)Cc1c(OC)c(Cl)cc(F)c1-n1c(=O)cc(C(F)(F)F)n(C)c1=O (single isomer, unassigned) [14-11] , which class would you pick?
Result :: low interval

These measurements were taken from patent US6355799B1.
